B1: Proto-oncogene vav, residues 782 to 842; numbered along this chain, P15498 (parent)
chain: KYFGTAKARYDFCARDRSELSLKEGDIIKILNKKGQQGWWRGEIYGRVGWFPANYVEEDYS

variants of: B1; test: abundance fitness (aPCA) (normalised: wild type 0, dead -1); higher = more abundant; growth selection in yeast, the domain comes from the species named; details: Homo sapiens
property measured: abundance fitness
Quick one: just the number, no unit, thanks!

Consider the following illustrative entries.
mutation key | abundance fitness
E58M | -0.216
G46Q | -0.291
W40C | -0.833

Query abundance fitness for "D16Y"
-0.445
